System: Entamoeba histolytica
Experiment: Anti-amoebic activity against trophozoites of Entamoeba histolytica HM-1:IMSS gassed with nitrogen for 10 mins measured after 72 hrs by eosin staining based micro dilution method
Type: functional
property.name: pIC50
Expect pIC50 as a plain number equal to -log10 of the molar concentration.

For the compound O=C([C@H]1CCCN1S(=O)(=O)c1cc(Cl)ccc1Cl)N1CCN(c2ccnc3cc(Cl)ccc23)CC1 , what pIC50 is on record?
5.05

For the compound O=C(CN1CCN(c2ccnc3cc(Cl)ccc23)CC1)NC1CCCCC1 , what pIC50 is on record?
6.07

For the compound CC(C)(C)c1ccc(S(=O)(=O)N2CCC[C@@H]2C(=O)N2CCN(c3ccnc4cc(Cl)ccc34)CC2)cc1 , what pIC50 is on record?
6.11

For the compound CCCS(=O)(=O)N1CCC[C@@H]1C(=O)N1CCN(c2ccnc3cc(Cl)ccc23)CC1 , what pIC50 is on record?
5.16

For the compound Cc1ccc(S(=O)(=O)N2CCC[C@@H]2C(=O)N2CCN(c3ccnc4cc(Cl)ccc34)CC2)cc1 , what pIC50 is on record?
6.47

For the compound Cc1cc(C)c(S(=O)(=O)N2CCC[C@@H]2C(=O)N2CCN(c3ccnc4cc(Cl)ccc34)CC2)c(C)c1 , what pIC50 is on record?
6.85

For the compound O=C([C@H]1CCCN1S(=O)(=O)c1ccc(Cl)cc1)N1CCN(c2ccnc3cc(Cl)ccc23)CC1 , what pIC50 is on record?
6.51

For the compound O=C([C@H]1CCCN1S(=O)(=O)c1ccccc1[N+](=O)[O-])N1CCN(c2ccnc3cc(Cl)ccc23)CC1 , what pIC50 is on record?
5.68

For the compound O=C([C@H]1CCCN1S(=O)(=O)c1ccccc1)N1CCN(c2ccnc3cc(Cl)ccc23)CC1 , what pIC50 is on record?
5.90

For the compound COc1ccc(S(=O)(=O)N2CCC[C@@H]2C(=O)N2CCN(c3ccnc4cc(Cl)ccc34)CC2)cc1 , what pIC50 is on record?
5.24

For the compound O=C([C@H]1CCCN1S(=O)(=O)c1ccc2ccccc2c1)N1CCN(c2ccnc3cc(Cl)ccc23)CC1 , what pIC50 is on record?
6.47

For the compound O=C(CN1CCN(c2ccnc3cc(Cl)ccc23)CC1)Nc1ccc(F)cc1 , what pIC50 is on record?
6.39
